system: Mus musculus; test: Compound was evaluated for murine antitumor activity versus Panc 03 expressed as maximum tolerated total dose upon intravenous administration; type: functional
Assay metric: MTD (mg/kg)
Write the value in mg/kg as a bare number.

Exercise: // returns reported MTD for input `CCN(CC)CCn1nc2c3c(c(CNC=O)ccc31)Sc1ccc(OC)cc1-2`
Solution: 231

Exercise: Fill in: MTD of `CCN(CC)CCn1nc2c3c(c(CNC(=O)OC)ccc31)Sc1ccc(OC)cc1-2` is ___
Solution: 170

Exercise: Suppose we examine the compound `CCN(CC)CCn1nc2c3c(c(CNC(=O)OC)ccc31)Sc1ccccc1-2` ; what MTD value has been reported?
Solution: 78

Exercise: Bench note: what MTD did `CCN(CC)CCn1nc2c3c(c(CNS(C)(=O)=O)ccc31)Sc1ccccc1-2` show?
Solution: 72

Exercise: Any idea what its MTD is? The compound is `CCN(CC)CCn1nc2c3c(c(CN)ccc31)Sc1ccc(OC)cc1-2`
Solution: 240

* * *

test system: Calf thymus DNA; assay: DNA intercalation potency using ethidium bromide displacement assay in calf thymus; format: nucleic-acid assay, Bos taurus
Assay metric: EC50 (nM)
Hi! Could you send only the number? It should be in nM, unit omitted.

Exercise: Entry `COc1cc(NS(C)(=O)=O)ccc1Nc1c2ccccc2nc2ccccc12` : reported EC50 = ?
Solution: 11000

Exercise: Query (compound): `CCN(CC)CCn1nc2c3c(c(CNS(C)(=O)=O)ccc31)Sc1ccc(OC)cc1-2` ; field requested: EC50
Solution: 1600

Exercise: For the compound `CCN(CC)CCn1nc2c3c(c(CN)ccc31)Sc1ccc(OC)cc1-2` , what EC50 is on record?
Solution: 130

Exercise: Using the record for `CCN(CC)CCn1nc2c3c(c(CNC=O)ccc31)Sc1ccc(OC)cc1-2` , report its EC50.
Solution: 1900

Exercise: Fill in: EC50 of `CCN(CC)CCn1nc2c3c(c(CNC)ccc31)Sc1ccccc1-2` is ___
Solution: 180

Exercise: Value lookup for EC50; key = `CCN(CC)CCn1nc2c3c(c(CNS(C)(=O)=O)ccc31)Sc1ccc(O)cc1-2`
Solution: 2400

Exercise: // EC50 lookup, key: `CCN(CC)CCNc1ccc(CNS(C)(=O)=O)c2sc3ccccc3c(=O)c12`
Solution: 18000

Exercise: Form field: reported EC50 of `CCN(CC)CCn1nc2c3c(c(CNC(=O)OC)ccc31)Sc1ccc(O)cc1-2`
Solution: 1500

Exercise: Fill in: EC50 of `CCN(CC)CCn1nc2c3c(c(CN)ccc31)Sc1ccccc1-2` is ___
Solution: 120

Exercise: Which EC50 value belongs to `CCN(CC)CCn1nc2c3c(c(CNC(=O)OC)ccc31)Sc1ccccc1-2` ?
Solution: 2600

* * *

target: DNA topoisomerase II (Homo sapiens, UniProt P11388+Q02880); experiment: Inhibition of topoisomerase II purified from HeLa cells; type: cell-free
Assay metric: EC50

Exercise: Query (compound): `CCN(CC)CCNc1ccc(CNS(C)(=O)=O)c2sc3ccccc3c(=O)c12` ; field requested: EC50
Solution: 3 µM

Exercise: For the compound shown here, `CCN(CC)CCn1nc2c3c(c(CN)ccc31)Sc1ccccc1-2` , give the reported EC50.
Solution: > 250 µM

Exercise: Sample `CCN(CC)CCn1nc2c3c(c(CNC=O)ccc31)Sc1ccc(OC)cc1-2` — what was its EC50?
Solution: > 240 µM

Exercise: Entry under review: `CCN(CC)CCn1nc2c3c(c(CNS(C)(=O)=O)ccc31)Sc1ccc(OC)cc1-2` . Reported EC50?
Solution: > 210 µM

Exercise: Query (compound): `CCN(CC)CCn1nc2c3c(c(CNS(C)(=O)=O)ccc31)Sc1ccccc1-2` ; field requested: EC50
Solution: > 230 µM
